Source: the supplement of paper PMC11451515

- System: NOMO1
- PROCEDURE DETAILS: cell viability relative to DMSO control; higher = less cytotoxic
- EXPERIMENTAL SETUP: RPMI 5 mM glucose + 10% dialyzed FBS; 48 h; 0.000781 µM
PROPERTY MEASURED: cell viability (%)
Give bare numbers, in %.

Consider the reported cell viability for these compounds:
compound=Nc1ncnc2nc(-c3ccc(N4CCOCC4)nc3)cc(-c3cccc(Br)c3)c12 measured_number=108
compound="COc1cccc(OC)c1-c1cc(C(=O)NC2(C(=O)O)C3CC4CC(C3)CC2C4)nn1-c1ccnc2cc(Cl)ccc12 (centres undefined)" measured_number=104
compound=C[C@]12CC[C@H]3[C@@H](CC[C@@]45O[C@@H]4C(O)=C(C#N)C[C@]35C)[C@@H]1CC[C@@H]2O measured_number=110
compound=CC(C)C[C@H](CC(=O)O)C(=O)N[C@@H](Cc1c[nH]c2ccccc12)C(=O)N[C@@H](C)c1ccccc1 measured_number=104
compound=COc1cc2cc(c1Cl)N(C)C(=O)C[C@H](OC(=O)C(C)C)[C@]1(C)O[C@@H]1[C@H](C)[C@@H]1C[C@@](O)(NC(=O)O1)[C@H](OC)/C=C/C=C(\C)C2 measured_number=37.2
compound=c1ccc2c(CN3CCNCC3)cccc2c1 measured_number=108

I need cell viability for every entry listed below, if you could help.
1. NC(=O)N1CCC(CC(=O)N2CCC([C@H]3c4ncc(Br)cc4CCc4cc(Cl)cc(Br)c43)CC2)CC1
2. Clc1ccc(C(c2ccc(Cl)cc2)[n+]2ccn(CC(OCc3ccc(Cl)cc3Cl)c3ccc(Cl)cc3Cl)c2)cc1 (centres undefined)
3. CCC(=O)O[C@@]1(CC[C@H]2[C@@H]3CCC/4=C/C(=O)CC[C@]4(C)[C@H]3CC[C@]12C)C(=O)CO
4. OC(=O)CNC(=O)\C1=C(/O)C2=CC=CC=C2N(CC3=CC=CC=C3)C1=O
5. c1cc2c(cc1[C@H]1OC[C@H]3[C@@H]1CO[C@@H]3c1ccc3c(c1)OCO3)OCO2

Out:
1: 109; 2: 105; 3: 107; 4: 93; 5: 119

* * *

Assignment: determine reported cell viability for the given compounds.
- Tested on: P12-Ichikawa
- PROCEDURE DETAILS: cell viability relative to DMSO control; higher = less cytotoxic
- EXPERIMENTAL SETUP: HPLM + 10% dialyzed FBS; 48 h; 46.1 µM
Answers are plain numbers, in %.

Reference set, count: 3
compound=CN1CCC(CNc2ccc3ncc(-c4cccc(OC(F)(F)F)c4)n3n2)CC1 assayed_system=P12-Ichikawa measured_number=5.65
compound=COc1c(N2C[C@@H]3CCCN[C@@H]3C2)c(F)cc2c(=O)c(C(=O)O)cn(C3CC3)c12.Cl.O assayed_system=P12-Ichikawa measured_number=70.6
compound=O=C(O)c1cccnc1 assayed_system=P12-Ichikawa measured_number=35.8

Go through the items and report each one's cell viability.
1. C[C@]12CC[C@H]3[C@@H](CC[C@@]45O[C@@H]4C(O)=C(C#N)C[C@]35C)[C@@H]1CC[C@@H]2O
2. Cc1nnc(C(=O)NC(C)(C)c2nc(C(=O)NCc3ccc(F)cc3)c(O)c(=O)n2C)o1
3. NC(=O)N1CCC(CC(=O)N2CCC([C@H]3c4ncc(Br)cc4CCc4cc(Cl)cc(Br)c43)CC2)CC1
4. Cc1ccc(C(=O)Nc2ccc([S+](=O)([O-])O)c3cc([S+](=O)([O-])O)cc([S+](=O)([O-])O)c23)cc1NC(=O)c1cccc(NC(=O)Nc2cccc(C(=O)Nc3cc(C(=O)Nc4ccc([S+](=O)([O-])O)c5cc([S+](=O)([O-])O)cc([S+](=O)([O-])O)c45)ccc3C)c2)c1
5. CCOc1cc(C(=O)Nc2ccc(Cl)c(-c3nc4ccccc4[nH]3)c2)cc(OCC)c1OCC
6. CC[C@H]1OC(=O)[C@H](C)[C@@H](O[C@H]2C[C@@](C)(OC)[C@@H](O)[C@H](C)O2)[C@H](C)[C@@H](O[C@@H]2O[C@H](C)C[C@H](N(C)C)[C@H]2O)[C@](C)(O)C[C@@H](C)/C(=N\OCOCCOC)[C@H](C)[C@@H](O)[C@]1(C)O

Out:
20.9
107
52.9
47
84.6
77.3
